# Test system: HCT-15 colon
# measurement.description: NCI tumour cell line growth inhibition, 48 h
measure: TGI

COC1CCC(O)C(CO)O1 (stereo unspecified) | > 100 µM
O=C(CN1CCCCC1)c1ccc2[nH]c(=O)oc2c1 | > 100 µM
Cc1ccc(/C=C/C(=O)c2ccc(F)cc2)s1 | 18.4 µM
COc1cc(OC)c(OC)cc1/C=C/c1ccccn1 | > 10 µM
OC(c1ccccc1)c1c(-c2ccccc2)[nH]c(-c2ccccc2)c1C(O)c1ccccc1 (stereo unspecified) | 40.1 µM

Can you look up TGI on HCT-15 colon for COC(=O)c1sc2nc(Nc3ccccc3)c(=Nc3ccccc3)sc2c1C ?
> 100 µM
